System: HT-1080
ASSAY COMMENT: Growth inhibition of human HT1080 cells at 2.5 uM after 72 hrs by SRB assay relative to control
Format: functional
STATED CONDITIONS: HT-1080, 72 h, read-out: GI
ASSAY READOUT: inhibition of growth at 2.5 µM

O=C(Nc1cccc(C(=O)Nc2cc(C(=O)Nc3ccc4c(S(=O)(=O)O)cccc4c3S(=O)(=O)O)n(C3CC3)c2)c1)Nc1cccc(C(=O)Nc2cc(C(=O)Nc3ccc4c(S(=O)(=O)O)cccc4c3S(=O)(=O)O)n(C3CC3)c2)c1    < 50%

Now look at this entry.
[ask] Data request, read-out inhibition of growth at 2.5 µM, for Cn1cc(NC(=O)Nc2cc(C(=O)Nc3cccc(C(=O)Nc4ccc5c(S(=O)(=O)[O-])cccc5c4S(=O)(=O)[O-])c3)n(C)c2)cc1C(=O)Nc1cccc(C(=O)Nc2ccc3c(S(=O)(=O)[O-])cccc3c2S(=O)(=O)[O-])c1.[Na+].[Na+].[Na+].[Na+]
[reply] < 50%
